tested on: RAW264.7; test: Inhibition of LPS-stimulated ROS production in mouse RAW264.7 cells preincubated for 1 hr followed by LPS stimulation after 24 hrs by CMH2DCFDA probe-based fluorescence assay
pIC50: −log10 of the molar value.

test_smiles	pIC50
O=C1/C(=C/c2cccc(F)c2)Cc2ccc(O)cc21	< 5.00
O=C1/C(=C/c2cccc(C(F)(F)F)c2)Cc2cc(O)ccc21	< 5.00
O=C1/C(=C/c2ccc(C(F)(F)F)cc2)Cc2cc(O)ccc21	5.26
O=C1/C(=C/c2cccc(F)c2)Cc2cccc(O)c21	5.25
O=C1/C(=C/c2ccccc2OC(F)(F)F)Cc2cccc(O)c21	5.49
O=C1/C(=C/c2cccc(Br)c2)Cc2cccc(O)c21	< 5.00
O=C1/C(=C/c2ccccc2OC(F)(F)F)Cc2ccc(O)cc21	5.88
O=C1/C(=C/c2ccc(F)cc2)Cc2cc(O)ccc21	< 5.00
O=C1/C(=C/c2ccccc2C(F)(F)F)Cc2ccccc21	< 5.00
O=C1/C(=C/c2ccc(Br)cc2)Cc2cccc(O)c21	< 5.00
O=C1/C(=C/c2cccc(C(F)(F)F)c2)Cc2cccc(O)c21	< 5.00
O=C1/C(=C/c2ccc(Br)cc2)Cc2c(O)cccc21	< 5.00
O=C1/C(=C/c2ccccc2F)Cc2ccc(O)cc21	< 5.00
O=C1/C(=C/c2ccc(F)cc2)Cc2cccc(O)c21	5.30
O=C1/C(=C/c2ccc(OC(F)(F)F)cc2)Cc2ccc(O)cc21	< 5.00
O=C1/C(=C/c2ccc(C(F)(F)F)cc2)Cc2c(O)cccc21	< 5.00
O=C1/C(=C/c2cccc(OC(F)(F)F)c2)Cc2c(O)cccc21	< 5.00
O=C1/C(=C/c2ccc(OC(F)(F)F)cc2)Cc2c(O)cccc21	< 5.00
O=C1/C(=C/c2cccc(C(F)(F)F)c2)Cc2ccccc21	< 5.00
O=C1/C(=C/c2ccccc2F)Cc2c(O)cccc21	< 5.00
O=C1/C(=C/c2ccc(F)cc2)Cc2ccccc21	< 5.00
O=C1/C(=C/c2ccc(F)cc2)Cc2ccc(O)cc21	< 5.00
O=C1/C(=C/c2cccc(C(F)(F)F)c2)Cc2c(O)cccc21	< 5.00
O=C1/C(=C/c2cccc(Br)c2)Cc2ccc(O)cc21	5.41
O=C1/C(=C/c2ccc(Br)cc2)Cc2cc(O)ccc21	5.22

###

Overview of recorded IC50 for various compounds
test system: RAW264.7; assay: Inhibition of LPS-stimulated ROS production in mouse RAW264.7 cells preincubated for 1 hr followed by LPS stimulation after 24 hrs by CMH2DCFDA probe-based fluorescence assay
quantity: IC50 (µM)

test_smiles	quantity	cmp	value_observed
O=C1/C(=C/c2ccccc2Br)Cc2ccc(O)cc21	IC50	=	4
O=C1/C(=C/c2ccccc2F)Cc2ccccc21	IC50	>	10
O=C1/C(=C/c2ccccc2C(F)(F)F)Cc2cc(O)ccc21	IC50	>	10
O=C1/C(=C/c2ccc(C(F)(F)F)cc2)Cc2ccccc21	IC50	>	10
O=C1/C(=C/c2cccc(OC(F)(F)F)c2)Cc2cccc(O)c21	IC50	=	4.62
O=C1/C(=C/c2ccccc2C(F)(F)F)Cc2ccc(O)cc21	IC50	=	2.61
O=C1/C(=C/c2ccc(Br)cc2)Cc2ccccc21	IC50	>	10
O=C1/C(=C/c2ccccc2Br)Cc2c(O)cccc21	IC50	>	10
O=C1/C(=C/c2ccccc2OC(F)(F)F)Cc2cc(O)ccc21	IC50	=	3.38
O=C1/C(=C/c2ccccc2Br)Cc2cc(O)ccc21	IC50	=	8.18
O=C1/C(=C/c2ccccc2Br)Cc2cccc(O)c21	IC50	>	10
O=C1/C(=C/c2ccc(OC(F)(F)F)cc2)Cc2ccccc21	IC50	>	10
